# target_desc: T1, Biotin-huCGRPaSA (human, not fully specified; biotin (position not given))
# T1 construct: exact construct ('aSA') not explained; also called Biotin CGRPaSA; full-length (1-37) CGRP
# T1 peptide: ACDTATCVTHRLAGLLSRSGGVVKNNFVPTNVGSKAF
# assay_info: ELISA, supernatant; relative to chimeric C245
Field: Relative binding activity, %. Provide a value for each of the binders that follow.
Please reply with the bare figure in % and do not write the unit itself.

Lab note: measured Relative binding activity, % of hu82 (antibody, V domains shown, 1F5 HC-5/1A2 LC2-4) VH: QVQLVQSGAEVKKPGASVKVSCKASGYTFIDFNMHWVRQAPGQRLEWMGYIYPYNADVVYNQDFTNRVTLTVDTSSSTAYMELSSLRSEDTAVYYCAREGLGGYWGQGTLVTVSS VL: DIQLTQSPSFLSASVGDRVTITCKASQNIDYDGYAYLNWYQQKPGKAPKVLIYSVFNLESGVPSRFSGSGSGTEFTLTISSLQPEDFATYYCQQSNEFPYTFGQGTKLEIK was 97

For reference, reported Relative binding activity, % for hu214 (antibody, V domains shown, 3H10 HC-2/1F5 LC1-2) VH: QVQLVQSGAEVKKPGASVKVSCKASGYTFTDYNMHWVRQAPGQGLEWMGYIYPYNGHTVYNQKFRNRVTLTVDTSSSTAYMELRSLRSDDTAVYYCAREGLGGYWGQGTLVTVSS VL: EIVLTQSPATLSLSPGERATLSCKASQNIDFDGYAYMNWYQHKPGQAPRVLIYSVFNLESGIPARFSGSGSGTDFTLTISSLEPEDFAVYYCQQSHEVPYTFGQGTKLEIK stands at 57
